Quick list: binding signal per entry.
TEST SYSTEM: OsWOX13 (Oryza sativa, UniProt Q5QMM3 1-267)
Sequence: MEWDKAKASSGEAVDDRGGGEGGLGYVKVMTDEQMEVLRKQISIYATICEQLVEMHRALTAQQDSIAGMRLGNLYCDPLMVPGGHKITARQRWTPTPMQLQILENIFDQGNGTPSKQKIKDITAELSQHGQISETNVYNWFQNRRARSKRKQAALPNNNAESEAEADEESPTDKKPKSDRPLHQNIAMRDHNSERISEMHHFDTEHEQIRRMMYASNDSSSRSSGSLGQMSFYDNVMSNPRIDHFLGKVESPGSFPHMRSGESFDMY
ASSAY: protein-binding microarray (RPBM); PBS, 2% BSA, 51.3 ng/ul salmon testes DNA, 50 uM zinc acetate, 200 nM TF, 25 C, 1 h; high values mean tight binding
ASSAY SETUP: protein: recombinant; tags: N-terminal polyhistidine and DsRed monomer fusion (pET32a); label: CyDye5-dUTP incorporated in the synthesized complementary strand; 3' TTTTT single-stranded linker to array surface; dsDNA, one strand shown
Over roughly 35,000 sequences, “fluorescence intensity (a.u.)” has its median near 10,000; the highest 2% begin near 52,000. This is one part of a sample in which the highest values are shown more often than they occur.

SEQUENCE ENTRY: TGTATTTAATTAGTTTGACAGAAACAAATTTGCTCAGTTACGGAGTCACCTAGTGCAG
OBSERVED VALUE: 37100 fluorescence intensity (a.u.)
//
SEQUENCE ENTRY: AAGCAATATAATTGTTTCTCTAATTAGGAGTTATACATGTCGGAGTCACCTAGTGCAG
OBSERVED VALUE: 19000 fluorescence intensity (a.u.)
//
SEQUENCE ENTRY: GAAATAATTAATTAATTTAATTAATTGATTGACACAAGTACGGAGTCACCTAGTGCAG
OBSERVED VALUE: 65000 fluorescence intensity (a.u.)
//
SEQUENCE ENTRY: CCATGATTTGACAATGTGATGCTACAGTAAACATTTGCTACGGAGTCACCTAGTGCAG
OBSERVED VALUE: 42800 fluorescence intensity (a.u.)
//
SEQUENCE ENTRY: TGTGTGTGTTTTAATTAATTAACATTTATATAAATATGAACGGAGTCACCTAGTGCAG
OBSERVED VALUE: 14100 fluorescence intensity (a.u.)

Ask: Look up binding signal of AGACAATGATAGTGATAATTAACAAATTCAGTTTAAGATCCGGAGTCACCTAGTGCAG and report it.
Result: 19700 fluorescence intensity (a.u.)
